Target: α1β3 GABAA receptor (β3 subunit) (Homo sapiens, UniProt P14867+P28472)
Assay: competition of KK123, KK200 and KK202 photolabeling on β[…]; [3H]muscimol binding enhancement
property_label: pEC50
Give bare numbers, as −log10 of the molar value.

Query string: Sample CC(=O)[C@H]1CC[C@H]2[C@@H]3CC[C@H]4C[C@H](O)CC[C@]4(C)[C@H]3CC[C@]12C [AlloP, 3α-hydroxy-5α-pregnan-20-one] — what was its pEC50?
Result string: 5.41

---

Molecular target: GABAA receptor α1 subunit (Homo sapiens, UniProt P14867)
Assay: photoaffinity labeling ([…]) with middle-down MS; EC50 from [3H]muscimol binding enhancement (whole α[…]β[…] receptor)
Set-up: gene GABRA1; α1His-FLAG β3 receptor in HEK-293 cell membranes; adduct in TM4 peptide 398-423; with GABAA receptor β3 subunit (GABRB3)
property_label: EC50
Report field: quantity (unit follows the number).

Query string: Sample C[C@]12CC[C@@H](O)CC1CCC1C2CC[C@@]2(C)C1CC[C@@H]2OCc1ccc(C2(C(F)(F)F)N=N2)cc1 (stereo partly shown) — what was its EC50?
Result string: 540 nM
